tested on: adult male and female schistosome pairs; assay: In vitro adult schistosome screening (WHO/TDR motility, egg counts); assay type: cell-based, Schistosoma mansoni; conditions: Schistosoma mansoni, 72 h, read-out: ADULT EC50 (95% Confidence Intervals) Females
metric: EC50 (µM)
# unit: µM | format: bare number

Sample records with EC50:
- compound: "Cc1sc2c(c1C)C(c1ccc(Cl)cc1)=N[C@@H](CC(=O)OC(C)(C)C)c1nnc(C)n1-2 [JQ1]"
  assay system: "adult male and female schistosome pairs"
  EC50 (µM): 22.8
- compound: "CCCS(=O)(=O)c1nc(NC2CC2)cc(-c2ccc3c(ccn3C3CC(C)(C)NC(C)(C)C3)c2)n1 [NVS-CECR2-1]"
  assay system: "adult male and female schistosome pairs"
  EC50 (µM): 5.21

Q: For COc1ccccc1C(=O)Nc1cc2c(cc1N1CCCC1)n(C)c(=O)n2C [PFI-4] , what is its reported EC50?
Ans: 31.2
